- STUDY TARGET: Toll-like receptor 4 (Homo sapiens) (UniProt O00206)
- Sequence (O00206 whole entry): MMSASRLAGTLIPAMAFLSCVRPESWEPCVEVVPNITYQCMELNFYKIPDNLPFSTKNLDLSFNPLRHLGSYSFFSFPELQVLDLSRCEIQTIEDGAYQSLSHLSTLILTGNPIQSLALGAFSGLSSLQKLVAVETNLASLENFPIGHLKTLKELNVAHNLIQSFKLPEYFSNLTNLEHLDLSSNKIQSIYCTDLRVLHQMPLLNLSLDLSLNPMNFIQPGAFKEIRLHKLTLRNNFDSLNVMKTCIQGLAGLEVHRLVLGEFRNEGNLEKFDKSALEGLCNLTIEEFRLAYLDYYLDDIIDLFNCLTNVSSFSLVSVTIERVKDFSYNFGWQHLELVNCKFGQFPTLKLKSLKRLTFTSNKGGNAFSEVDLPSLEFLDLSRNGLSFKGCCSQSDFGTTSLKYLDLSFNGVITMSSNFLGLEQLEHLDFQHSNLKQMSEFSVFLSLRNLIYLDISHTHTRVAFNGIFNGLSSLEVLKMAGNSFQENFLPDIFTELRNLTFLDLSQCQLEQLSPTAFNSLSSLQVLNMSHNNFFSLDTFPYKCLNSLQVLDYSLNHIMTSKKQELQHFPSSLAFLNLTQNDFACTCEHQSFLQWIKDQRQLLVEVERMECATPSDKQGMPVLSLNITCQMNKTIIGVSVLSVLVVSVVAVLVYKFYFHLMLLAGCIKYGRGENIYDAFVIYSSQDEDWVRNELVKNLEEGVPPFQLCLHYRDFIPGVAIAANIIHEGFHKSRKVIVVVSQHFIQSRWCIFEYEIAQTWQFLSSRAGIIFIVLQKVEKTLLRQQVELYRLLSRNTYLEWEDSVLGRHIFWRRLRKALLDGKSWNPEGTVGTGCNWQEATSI
- ASSAY EXPLANATION: Inhibition of TLR4 in human U937-3xkappaB-LUC cells assessed as inhibition of Aggregatibacter actinomycetemcomitans LPS-induced NF-kappaB activation at 10 uM preincubated for 30 mins followed by LPS stimulation and measured after 6 hrs post LPS challenge by Bright-Glo luciferase reporter gene assay relative to control
OBSERVATION TYPE: inhibition (%)
Answers are plain numbers, in %.

Previously resolved entries follow.
>  <COMPOUND>
CCCCCc1cc(O)cc(O)c1Oc1cc(OC)cc(C(=O)CCCC)c1C(=O)OC

>  <UNIT>
%

>  <inhibition>
39

$$$$
>  <COMPOUND>
CCCCCc1cc(O)cc(O)c1Oc1cc2c(cc1OC)C(CCCC)(OC)OC2=O (centres undefined)

>  <UNIT>
%

>  <inhibition>
15

$$$$
>  <COMPOUND>
CCC/C=C1\OC(=O)c2cc(Oc3c(O)cc(O)cc3CCCCC)c(OC)cc21

>  <UNIT>
%

>  <inhibition>
28

$$$$
>  <COMPOUND>
CCCCCc1c(Oc2cc3c(cc2OC)C(CCCC)(OC)OC3=O)c(O)cc(O)c1C(=O)O (centres undefined)

>  <UNIT>
%

>  <inhibition>
39

$$$$
>  <COMPOUND>
CCCCCc1c2c(cc(O)c1C(=O)O)OC(=O)c1c(cc(OC)cc1C(=O)CCCC)O2

>  <UNIT>
%

>  <inhibition>
42

$$$$
>  <COMPOUND>
CCCCCc1cc(O)cc(O)c1Oc1cc(OC)cc2c1C(=O)OC2(O)CCCC (centres undefined)

>  <UNIT>
%

>  <inhibition>
29

$$$$

I have 2 compounds here; please give me inhibition for each one.
1. COC(=O)c1c(C)cc(O)c(C)c1O
2. CCCCCc1c(Oc2cc(OC)cc(C(=O)CCCC)c2C(=O)OC)c(O)cc(O)c1C(=O)O

1. 19
2. 52

Quickly give me recorded inhibition for COC(=O)c1c(C)cc(O)c(C=O)c1O [METHYL HAEMATOMMATE]
24

====

- STUDY TARGET: Toll-like receptor 4 (Homo sapiens) (UniProt O00206)
- ASSAY EXPLANATION: Inhibition of TLR4 in human U937-3xkappaB-LUC cells assessed as inhibition of Aggregatibacter actinomycetemcomitans LPS-induced NF-kappaB activation at 5 uM preincubated for 30 mins followed by LPS stimulation and measured after 6 hrs post LPS challenge by Bright-Glo luciferase reporter gene assay relative to control
OBSERVATION TYPE: inhibition (%)
Answers are plain numbers, in %.

>  <MOLECULE>
CCCCCc1c2c(cc(O)c1C(=O)O)OC(=O)c1c(cc(OC)cc1C(=O)CCCC)O2

>  <inhibition / %>
29

$$$$
>  <MOLECULE>
CCCCCc1c(Oc2cc3c(cc2OC)C(CCCC)(OC)OC3=O)c(O)cc(O)c1C(=O)O (centres undefined)

>  <inhibition / %>
27

$$$$
>  <MOLECULE>
CCCCCc1cc(O)cc(O)c1Oc1cc(OC)cc(C(=O)CCCC)c1C(=O)OC

>  <inhibition / %>
23

$$$$
>  <MOLECULE>
COC(=O)c1c(C)cc(O)c(C)c1O

>  <inhibition / %>
27

$$$$
>  <MOLECULE>
COC(=O)c1c(C)cc(O)c(C=O)c1O [METHYL HAEMATOMMATE]

>  <inhibition / %>
17

$$$$
>  <MOLECULE>
CCCCCc1c(Oc2cc(OC)cc(C(=O)CCCC)c2C(=O)OC)c(O)cc(O)c1C(=O)O

>  <inhibition / %>
37

$$$$
>  <MOLECULE>
CCCCCc1cc(O)cc(O)c1Oc1cc(OC)cc2c1C(=O)OC2(O)CCCC (centres undefined)

>  <inhibition / %>
26

$$$$
>  <MOLECULE>
CCC/C=C1\OC(=O)c2cc(Oc3c(O)cc(O)cc3CCCCC)c(OC)cc21

>  <inhibition / %>
26

$$$$

Then there is this molecule:
Quickly give me recorded inhibition for CCCCCc1cc(O)cc(O)c1Oc1cc2c(cc1OC)C(CCCC)(OC)OC2=O (centres undefined)
12

====

- ASSAY EXPLANATION: Cytotoxicity against PMA-differentiated human U937 macrophages assessed as cell viability at 20 uM after 24 hrs by MTT assay relative to untreated control
- Type: cell-based, U-937
- REPORTED CONDITIONS: read-out: Activity
OBSERVATION TYPE: viability at 24 h, 20 µM (%)
Numbers only, in %.

Previously resolved entries follow.
>  <MOLECULE>
COC(=O)c1c(C)cc(O)c(C=O)c1O [METHYL HAEMATOMMATE]

>  <UNIT>
%

>  <viability at 24 h, 20 µM>
102

$$$$
>  <MOLECULE>
CCCCCc1c(Oc2cc(OC)cc(C(=O)CCCC)c2C(=O)OC)c(O)cc(O)c1C(=O)O

>  <UNIT>
%

>  <viability at 24 h, 20 µM>
86

$$$$
>  <MOLECULE>
CCCCCc1c2c(cc(O)c1C(=O)O)OC(=O)c1c(cc(OC)cc1C(=O)CCCC)O2 [LOBARIC ACID]

>  <UNIT>
%

>  <viability at 24 h, 20 µM>
121

$$$$
>  <MOLECULE>
CCCCCc1cc(O)cc(O)c1Oc1cc(OC)cc2c1C(=O)OC2(O)CCCC (stereo not given)

>  <UNIT>
%

>  <viability at 24 h, 20 µM>
124

$$$$

Quickly give me recorded viability at 24 h, 20 µM for CCC/C=C1\OC(=O)c2cc(Oc3c(O)cc(O)cc3CCCCC)c(OC)cc21
101

====

- ASSAY EXPLANATION: Cytotoxicity against PMA-differentiated human U937 macrophages assessed as cell viability at 80 uM after 24 hrs by MTT assay relative to untreated control
- Type: cell-based, U-937
- REPORTED CONDITIONS: read-out: Activity
Could you please mark class 1 for values of viability at 24 h, 80 µM below 50% and class 0 for values at or above it?

>  <MOLECULE>
COC(=O)c1c(C)cc(O)c(C)c1O

>  <CATEGORY>
class 0

$$$$
>  <MOLECULE>
COC(=O)c1c(C)cc(O)c(C=O)c1O [METHYL HAEMATOMMATE]

>  <CATEGORY>
class 0

$$$$
>  <MOLECULE>
CCCCCc1cc(O)cc(O)c1Oc1cc(OC)cc(C(=O)CCCC)c1C(=O)OC

>  <CATEGORY>
class 0

$$$$
>  <MOLECULE>
CCCCCc1cc(O)cc(O)c1Oc1cc2c(cc1OC)C(CCCC)(OC)OC2=O (centres undefined)

>  <CATEGORY>
class 1

$$$$
>  <MOLECULE>
CCCCCc1c2c(cc(O)c1C(=O)O)OC(=O)c1c(cc(OC)cc1C(=O)CCCC)O2

>  <CATEGORY>
class 0

$$$$
>  <MOLECULE>
CCCCCc1c(Oc2cc(OC)cc(C(=O)CCCC)c2C(=O)OC)c(O)cc(O)c1C(=O)O

>  <CATEGORY>
class 1

$$$$
>  <MOLECULE>
CCC/C=C1\OC(=O)c2cc(Oc3c(O)cc(O)cc3CCCCC)c(OC)cc21

>  <CATEGORY>
class 1

$$$$
>  <MOLECULE>
CCCCCc1cc(O)cc(O)c1Oc1cc(OC)cc2c1C(=O)OC2(O)CCCC (centres undefined)

>  <CATEGORY>
class 0

$$$$

Check if viability at 24 h, 80 µM falls below 50% for CCCCCc1c(Oc2cc3c(cc2OC)C(CCCC)(OC)OC3=O)c(O)cc(O)c1C(=O)O (centres undefined) .
class 0

====

- ASSAY EXPLANATION: Cytotoxicity against PMA-differentiated human U937 macrophages assessed as cell viability at 40 uM after 24 hrs by MTT assay relative to untreated control
- Type: cell-based, U-937
- REPORTED CONDITIONS: read-out: Activity
OBSERVATION TYPE: viability at 24 h, 40 µM (%)
Numbers only, in %.

Previously resolved entries follow.
>  <COMPOUND>
CCCCCc1c(Oc2cc3c(cc2OC)C(CCCC)(OC)OC3=O)c(O)cc(O)c1C(=O)O (centres undefined)

>  <viability at 24 h, 40 µM (%)>
121

$$$$
>  <COMPOUND>
COC(=O)c1c(C)cc(O)c(C)c1O

>  <viability at 24 h, 40 µM (%)>
116

$$$$
>  <COMPOUND>
CCCCCc1cc(O)cc(O)c1Oc1cc(OC)cc(C(=O)CCCC)c1C(=O)OC

>  <viability at 24 h, 40 µM (%)>
85

$$$$
>  <COMPOUND>
CCCCCc1c(Oc2cc(OC)cc(C(=O)CCCC)c2C(=O)OC)c(O)cc(O)c1C(=O)O

>  <viability at 24 h, 40 µM (%)>
67

$$$$
>  <COMPOUND>
CCCCCc1cc(O)cc(O)c1Oc1cc2c(cc1OC)C(CCCC)(OC)OC2=O (centres undefined)

>  <viability at 24 h, 40 µM (%)>
87

$$$$

I have 4 compounds here; please give me viability at 24 h, 40 µM for each one.
1. CCCCCc1cc(O)cc(O)c1Oc1cc(OC)cc2c1C(=O)OC2(O)CCCC (centres undefined)
2. CCCCCc1c2c(cc(O)c1C(=O)O)OC(=O)c1c(cc(OC)cc1C(=O)CCCC)O2
3. COC(=O)c1c(C)cc(O)c(C=O)c1O [METHYL HAEMATOMMATE]
4. CCC/C=C1\OC(=O)c2cc(Oc3c(O)cc(O)cc3CCCCC)c(OC)cc21

122
73
102
38
